B1: tRNA (parent)
chain: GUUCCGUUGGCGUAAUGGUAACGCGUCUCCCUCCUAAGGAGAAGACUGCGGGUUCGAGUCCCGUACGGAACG

Variants of: B1
protocol: yeast fitness relative to wild type (ratio to wild type); higher = fitter; tRNA-Arg(CCU), competitive growth, 37 C, YPD
Variants at the floor of the assay were thinned out.
// yeast fitness lookup, one value per entry

mutation spec	yeast fitness
C22U	0.908
C11G G50C	0.597
U13C G58A	0.891
C11G C34U U35A C55U	0.59
G23A G58C	0.885
U3C C11A U32G C61A C62A	0.587
